Consider the following compounds; for each one, report its k2 Caspase-7.
Assay system: Caspase-7 (Homo sapiens, UniProt P55210)
Sequence (P55210 24-198 limits assumed): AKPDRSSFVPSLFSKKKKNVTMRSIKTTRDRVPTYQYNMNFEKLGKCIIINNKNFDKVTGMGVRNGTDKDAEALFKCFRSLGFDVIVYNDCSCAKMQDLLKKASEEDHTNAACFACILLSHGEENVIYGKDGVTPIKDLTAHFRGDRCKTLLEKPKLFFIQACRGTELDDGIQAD
Sequence (P55210 207-303 limits assumed): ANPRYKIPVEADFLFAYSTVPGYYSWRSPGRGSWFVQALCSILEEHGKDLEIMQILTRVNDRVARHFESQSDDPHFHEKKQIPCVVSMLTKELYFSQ
Test summary: Caspase-7 progress curve inhibition assay
Conditions: second-order rate constant; Ac-DEVD-AMC substrate; Pipes buffer pH 7.2
State the answer as a number, implicitly in M⁻¹ s⁻¹.

## Task Give k2 Caspase-7 for CCCCNC(=O)/C=C/C(=O)N(CC(=O)O)NC(=O)[C@@H](NC(=O)OCc1ccccc1)C(C)C (stereo in doubt)
## Result 55

## Task Give k2 Caspase-7 for CC(C)C[C@H](NC(=O)OCc1ccccc1)C(=O)N[C@@H](CCC(=O)O)C(=O)N[C@H](C(=O)NN(CC(=O)O)C(=O)/C=C/C(=O)Nc1ccccc1)[C@@H](C)O (relative stereo)
## Result 730

## Task Give k2 Caspase-7 for CCOC(=O)/C=C/C(=O)N(CC(=O)O)NC(=O)[C@@H](NC(=O)[C@H](CCC(=O)O)NC(=O)[C@@H](NC(=O)OCc1ccccc1)[C@@H](C)CC)[C@@H](C)O (relative stereo)
## Result 530

## Task Give k2 Caspase-7 for CC[C@H](C)[C@H](NC(=O)OCc1ccccc1)C(=O)N[C@@H](CCC(=O)O)C(=O)N[C@H](C(=O)NN(CC(=O)O)C(=O)/C=C/C(=O)Nc1ccccc1)[C@@H](C)O (relative stereo)
## Result 920

## Task Give k2 Caspase-7 for CC[C@H](C)[C@H](NC(=O)OCc1ccccc1)C(=O)N[C@@H](CCC(=O)O)C(=O)N[C@H](C(=O)NN(CC(=O)O)C(=O)/C=C/C(=O)NCCc1ccccc1)[C@@H](C)O (relative stereo)
## Result 440

## Task Give k2 Caspase-7 for CC(C)C[C@H](NC(=O)OCc1ccccc1)C(=O)N[C@@H](CCC(=O)O)C(=O)N[C@H](C(=O)NN(CC(=O)O)C(=O)/C=C/C(=O)NCc1ccc(F)cc1)[C@@H](C)O (relative stereo)
## Result 410

## Task Give k2 Caspase-7 for CC(C)C[C@H](NC(=O)OCc1ccccc1)C(=O)N[C@@H](CCC(=O)O)C(=O)N[C@H](C(=O)NN(CC(=O)O)C(=O)/C=C/C(=O)NCc1ccccc1)[C@@H](C)O (relative stereo)
## Result 340

====

Assay system: Caspase-2 (Homo sapiens, UniProt P42575)
Sequence (P42575 170-333 limits assumed): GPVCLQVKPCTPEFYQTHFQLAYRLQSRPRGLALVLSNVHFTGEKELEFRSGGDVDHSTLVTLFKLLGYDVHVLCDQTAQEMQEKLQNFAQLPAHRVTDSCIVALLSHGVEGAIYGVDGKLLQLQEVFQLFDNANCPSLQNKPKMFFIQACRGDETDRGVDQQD
Sequence (P42575 348-452 limits assumed): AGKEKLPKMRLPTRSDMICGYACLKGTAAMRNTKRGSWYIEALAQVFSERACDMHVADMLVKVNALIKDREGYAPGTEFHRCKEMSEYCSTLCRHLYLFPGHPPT
Test summary: Caspase-2 progress curve inhibition assay
Conditions: second-order rate constant; Cbz-VDVAD-AFC substrate; Pipes buffer pH 7.2
Consider the following compounds; for each one, report its k2 Caspase-2.
State the answer as a number, implicitly in M⁻¹ s⁻¹.

## Task Give k2 Caspase-2 for CC[C@H](C)[C@H](NC(=O)OCc1ccccc1)C(=O)N[C@@H](CCC(=O)O)C(=O)N[C@H](C(=O)NN(CC(=O)O)C(=O)/C=C/C(=O)Nc1ccccc1)[C@@H](C)O (relative stereo)
## Result 365

## Task Give k2 Caspase-2 for CC(C)C[C@H](NC(=O)OCc1ccccc1)C(=O)N[C@@H](CCC(=O)O)C(=O)N[C@H](C(=O)NN(CC(=O)O)C(=O)/C=C/C(=O)Nc1ccccc1)[C@@H](C)O (relative stereo)
## Result 290
